# measuredTarget: N. gonorrhoeae topoisomerase IV ParC^S88P (Neisseria gonorrhoeae, UniProt P48374, S88P)
# Sequence (P48374 whole entry S88P): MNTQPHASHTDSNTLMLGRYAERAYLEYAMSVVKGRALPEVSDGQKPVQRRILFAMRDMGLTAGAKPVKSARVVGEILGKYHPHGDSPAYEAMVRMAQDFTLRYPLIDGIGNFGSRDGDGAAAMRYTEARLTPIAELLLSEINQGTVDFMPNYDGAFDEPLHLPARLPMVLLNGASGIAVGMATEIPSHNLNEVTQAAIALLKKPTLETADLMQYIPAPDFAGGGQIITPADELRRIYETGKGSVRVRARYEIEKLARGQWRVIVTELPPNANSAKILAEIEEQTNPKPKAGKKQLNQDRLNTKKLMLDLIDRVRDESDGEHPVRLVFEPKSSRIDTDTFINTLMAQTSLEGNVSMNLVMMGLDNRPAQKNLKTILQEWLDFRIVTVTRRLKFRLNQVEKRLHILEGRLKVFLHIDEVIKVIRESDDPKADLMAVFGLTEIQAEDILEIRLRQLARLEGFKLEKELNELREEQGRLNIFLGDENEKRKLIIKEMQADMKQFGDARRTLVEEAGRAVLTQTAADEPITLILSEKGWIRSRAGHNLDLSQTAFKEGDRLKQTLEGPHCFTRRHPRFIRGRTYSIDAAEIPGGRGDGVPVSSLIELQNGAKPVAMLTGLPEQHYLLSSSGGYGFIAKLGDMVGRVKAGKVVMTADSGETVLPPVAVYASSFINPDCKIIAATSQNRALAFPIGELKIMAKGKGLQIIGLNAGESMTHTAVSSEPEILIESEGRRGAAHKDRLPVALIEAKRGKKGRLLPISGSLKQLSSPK
# assayDetails: biochemical
testReadout: EC50 (nM)

>>> number("O=c1ccc2ncc(=O)n3c2n1C[C@H]3CN1CCC(NCc2cc3c(cn2)OCCC3)CC1")
200

====

# measuredTarget: N. gonorrhoeae gyrase GyrA^S91F/D95G (Neisseria gonorrhoeae, UniProt P48371, D95G/S91F)
# Construct: His
# Sequence (P48371 whole entry S91F/D95G): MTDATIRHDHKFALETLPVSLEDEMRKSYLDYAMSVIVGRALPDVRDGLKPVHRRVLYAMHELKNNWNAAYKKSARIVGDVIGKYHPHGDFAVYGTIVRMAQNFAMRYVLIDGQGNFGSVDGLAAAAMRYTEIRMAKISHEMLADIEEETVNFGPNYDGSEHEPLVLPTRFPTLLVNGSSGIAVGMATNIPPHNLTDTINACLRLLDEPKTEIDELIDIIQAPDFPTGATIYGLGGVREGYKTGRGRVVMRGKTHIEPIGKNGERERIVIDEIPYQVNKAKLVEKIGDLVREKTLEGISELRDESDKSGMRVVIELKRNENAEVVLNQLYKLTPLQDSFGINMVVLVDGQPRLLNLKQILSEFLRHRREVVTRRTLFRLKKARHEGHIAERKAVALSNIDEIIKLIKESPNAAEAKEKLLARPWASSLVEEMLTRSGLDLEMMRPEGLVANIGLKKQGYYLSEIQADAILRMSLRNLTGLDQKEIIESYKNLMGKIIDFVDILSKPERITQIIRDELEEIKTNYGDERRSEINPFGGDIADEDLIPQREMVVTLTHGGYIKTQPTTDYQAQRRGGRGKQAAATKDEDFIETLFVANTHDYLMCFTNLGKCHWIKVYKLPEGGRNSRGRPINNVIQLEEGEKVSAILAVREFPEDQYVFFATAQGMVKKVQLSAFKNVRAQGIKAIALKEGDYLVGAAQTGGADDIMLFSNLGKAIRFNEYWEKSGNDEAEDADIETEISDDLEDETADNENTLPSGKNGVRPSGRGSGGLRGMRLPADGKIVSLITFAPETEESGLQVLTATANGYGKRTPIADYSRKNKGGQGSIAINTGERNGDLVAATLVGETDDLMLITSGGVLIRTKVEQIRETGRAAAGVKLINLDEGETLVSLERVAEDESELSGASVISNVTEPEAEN
# Sequence (P22118 whole entry partner): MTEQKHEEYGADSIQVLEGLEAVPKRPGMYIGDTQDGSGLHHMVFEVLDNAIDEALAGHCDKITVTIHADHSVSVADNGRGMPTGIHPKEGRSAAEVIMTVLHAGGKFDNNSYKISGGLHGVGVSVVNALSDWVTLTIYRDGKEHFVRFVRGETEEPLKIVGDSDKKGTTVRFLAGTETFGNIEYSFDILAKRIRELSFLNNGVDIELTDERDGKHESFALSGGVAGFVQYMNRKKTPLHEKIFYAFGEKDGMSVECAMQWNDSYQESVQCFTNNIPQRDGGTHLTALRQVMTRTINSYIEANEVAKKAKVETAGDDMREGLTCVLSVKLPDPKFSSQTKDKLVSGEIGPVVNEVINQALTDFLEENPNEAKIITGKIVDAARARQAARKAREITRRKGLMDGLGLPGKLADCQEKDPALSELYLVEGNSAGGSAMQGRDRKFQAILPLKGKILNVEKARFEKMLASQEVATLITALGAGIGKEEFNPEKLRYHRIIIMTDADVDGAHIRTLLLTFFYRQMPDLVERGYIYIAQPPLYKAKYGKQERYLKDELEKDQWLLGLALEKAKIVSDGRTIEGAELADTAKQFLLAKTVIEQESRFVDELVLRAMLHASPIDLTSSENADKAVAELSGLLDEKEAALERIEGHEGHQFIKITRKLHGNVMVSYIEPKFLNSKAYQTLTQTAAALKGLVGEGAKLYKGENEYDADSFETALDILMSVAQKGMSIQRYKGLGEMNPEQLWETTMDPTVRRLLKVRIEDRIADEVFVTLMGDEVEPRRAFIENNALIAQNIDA
# assayDetails: Gyrase-catalyzed DNA supercoiling assay, GyrA^S91F/D95G
# particulars: read-out: IC50, inhibition of DNA supercoiling
testReadout: IC50 (µM)

>>> number("O=c1ccc2ncc(=O)n3c2n1C[C@H]3CN1CCC(NCc2cc3c(cn2)OCCC3)CC1")
3.6

====

# measuredTarget: N. gonorrhoeae gyrase GyrA^D95G (Neisseria gonorrhoeae, UniProt P48371, D95G)
# Construct: His; made in house
# assayDetails: DNA cleavage assay, GyrA^D95G gyrase
# Format: biochemical
# particulars: GyrA D95G gyrase; read-out: CC50, single-stranded DNA cleavage
testReadout: EC50 (µM)

>>> number("O=c1ccc2ncc(=O)n3c2n1C[C@H]3CN1CCC(NCc2cc3c(cn2)OCCC3)CC1 [gepotidacin]")
1.3

====

# measuredTarget: N. gonorrhoeae gyrase GyrA^S91F (Neisseria gonorrhoeae, UniProt P48371, S91F)
# Construct: His; made in house
# assayDetails: Gyrase-catalyzed DNA supercoiling assay, GyrA^S91F
# Format: biochemical
# particulars: GyrA S91F gyrase; read-out: IC50, inhibition of DNA supercoiling
testReadout: IC50 (µM)

>>> number("O=c1ccc2ncc(=O)n3c2n1C[C@H]3CN1CCC(NCc2cc3c(cn2)OCCC3)CC1 [gepotidacin]")
7.5

====

# measuredTarget: N. gonorrhoeae gyrase GyrA^D90N (Neisseria gonorrhoeae, UniProt P48371, D90N)
# Construct: His
# Sequence (P48371 whole entry D90N, one chain of several): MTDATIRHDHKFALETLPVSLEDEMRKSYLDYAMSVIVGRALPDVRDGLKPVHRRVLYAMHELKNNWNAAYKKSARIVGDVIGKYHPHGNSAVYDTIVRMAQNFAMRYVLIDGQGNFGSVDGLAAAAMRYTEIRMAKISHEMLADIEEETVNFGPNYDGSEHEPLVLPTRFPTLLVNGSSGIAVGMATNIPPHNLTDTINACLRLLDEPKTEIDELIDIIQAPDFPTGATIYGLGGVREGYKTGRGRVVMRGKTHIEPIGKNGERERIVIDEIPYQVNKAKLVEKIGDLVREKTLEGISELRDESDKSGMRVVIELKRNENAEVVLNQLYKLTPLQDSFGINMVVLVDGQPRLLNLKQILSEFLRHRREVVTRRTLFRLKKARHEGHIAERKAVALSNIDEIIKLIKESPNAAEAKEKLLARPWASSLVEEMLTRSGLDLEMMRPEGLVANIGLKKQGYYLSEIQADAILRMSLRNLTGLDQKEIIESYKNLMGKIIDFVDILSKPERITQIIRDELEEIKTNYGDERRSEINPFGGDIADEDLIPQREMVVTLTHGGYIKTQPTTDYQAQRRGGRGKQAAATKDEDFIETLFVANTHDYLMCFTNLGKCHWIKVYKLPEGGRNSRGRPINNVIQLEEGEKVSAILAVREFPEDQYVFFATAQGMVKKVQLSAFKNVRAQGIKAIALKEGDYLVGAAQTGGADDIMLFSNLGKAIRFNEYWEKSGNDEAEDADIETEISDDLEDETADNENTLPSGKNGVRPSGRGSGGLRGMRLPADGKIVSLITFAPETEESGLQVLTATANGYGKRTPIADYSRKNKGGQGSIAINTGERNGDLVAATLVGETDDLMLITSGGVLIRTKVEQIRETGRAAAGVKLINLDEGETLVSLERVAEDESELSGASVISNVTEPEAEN
# assayDetails: Gyrase-catalyzed DNA supercoiling assay, GyrA^D90N
# particulars: read-out: IC50, inhibition of DNA supercoiling
# Procedure: All proteins were His-tagged. […] Samples were mixed with 2 μL of loading dye [60% sucrose, 10 mM Tris–HCl (pH 7.9), 0.5% bromophenol blue, and 0.5% xylene cyanol FF] and incubated at 45 °C for 2 min before being subjected to electrophoresis on 1% agarose gels in 100 mM Tris-borate (pH 8.3) and 2 mM EDTA. […] DNA bands were visualized with medium-range ultraviolet light and quantified using an Alpha Innotech digital imaging system (Protein Simple). […]
pIC50: −log10 of the molar value.
testReadout: pIC50

>>> result("O=c1ccc2ncc(=O)n3c2n1C[C@H]3CN1CCC(NCc2cc3c(cn2)OCCC3)CC1 [gepotidacin]")
"< 4.00"

====

# measuredTarget: N. gonorrhoeae gyrase GyrA^A92T (Neisseria gonorrhoeae, UniProt P48371, A92T)
# Construct: His
# Sequence (P48371 whole entry A92T): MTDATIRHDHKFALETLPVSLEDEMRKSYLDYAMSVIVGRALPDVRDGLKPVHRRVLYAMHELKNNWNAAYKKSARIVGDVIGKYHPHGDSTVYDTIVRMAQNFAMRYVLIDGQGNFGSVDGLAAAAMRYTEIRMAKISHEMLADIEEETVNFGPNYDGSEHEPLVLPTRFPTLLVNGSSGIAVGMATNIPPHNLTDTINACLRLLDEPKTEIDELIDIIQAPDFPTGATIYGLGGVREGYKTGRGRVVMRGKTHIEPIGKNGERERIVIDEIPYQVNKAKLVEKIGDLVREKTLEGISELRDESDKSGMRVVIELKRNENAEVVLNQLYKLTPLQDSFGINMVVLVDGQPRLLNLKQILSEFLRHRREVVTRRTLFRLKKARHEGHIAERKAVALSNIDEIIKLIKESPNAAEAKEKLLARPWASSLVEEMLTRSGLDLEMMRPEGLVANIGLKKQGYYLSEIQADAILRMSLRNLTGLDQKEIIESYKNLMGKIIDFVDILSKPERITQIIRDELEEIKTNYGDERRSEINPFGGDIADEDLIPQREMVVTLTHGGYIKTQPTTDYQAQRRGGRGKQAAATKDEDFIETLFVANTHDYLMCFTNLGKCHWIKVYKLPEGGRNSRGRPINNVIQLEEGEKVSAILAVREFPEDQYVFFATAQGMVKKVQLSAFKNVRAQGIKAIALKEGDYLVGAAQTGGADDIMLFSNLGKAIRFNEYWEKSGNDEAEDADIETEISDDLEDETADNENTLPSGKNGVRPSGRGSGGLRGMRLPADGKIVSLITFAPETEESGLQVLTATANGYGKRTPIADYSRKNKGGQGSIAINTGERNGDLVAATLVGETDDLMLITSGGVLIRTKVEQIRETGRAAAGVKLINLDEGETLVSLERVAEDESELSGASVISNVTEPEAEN
# Sequence (P22118 whole entry partner): as the sequence (P22118 whole entry partner) above
# assayDetails: Gyrase-catalyzed DNA supercoiling assay, GyrA^A92T
# particulars: GyrA A92T gyrase; read-out: IC50, inhibition of DNA supercoiling
pIC50: −log10 of the molar value.
testReadout: pIC50

>>> number("O=c1ccc2ncc(=O)n3c2n1C[C@H]3CN1CCC(NCc2cc3c(cn2)OCCC3)CC1")
5.07

====

# measuredTarget: N. gonorrhoeae gyrase GyrA^A92T (Neisseria gonorrhoeae, UniProt P48371, A92T)
# Construct: His
# assayDetails: DNA cleavage assay, GyrA^A92T gyrase
# particulars: GyrA A92T gyrase; read-out: CC50, single-stranded DNA cleavage
testReadout: EC50 (nM)

>>> number("O=c1ccc2ncc(=O)n3c2n1C[C@H]3CN1CCC(NCc2cc3c(cn2)OCCC3)CC1")
500

Value source: paper PMC12624743
